Kp uu reference
- PROCEDURE_DETAILS: Unbound tissue partition coefficient, ratio of drug level in brain to plasma in Wistar Han rat at 1 to 2 mg/kg, iv infused for 10 to 20 hrs by LC-MS/MS analysis
- CONDITION_INFO: brain/plasma
MEASURED_ENDPOINT: Kp uu

- TEST_SMILES: "O=C(c1cccc(N2CCNCC2)n1)N1CCC(c2ccccc2F)CC1"
  MEASURED_ENDPOINT: "Kp uu"
  READING: 0.078
- TEST_SMILES: "C[C@H]1c2cccc(CCC(C)(C)O)c2C[C@H](CO)N1C(=O)Cc1c(Cl)cccc1Cl"
  MEASURED_ENDPOINT: "Kp uu"
  READING: 0.35
- TEST_SMILES: "CC(=O)NS(=O)(=O)c1ccc(Oc2ccc(F)c(Cl)c2)c(C(F)(F)F)c1"
  MEASURED_ENDPOINT: "Kp uu"
  READING: 0.074
- TEST_SMILES: "Cn1cnc(-c2ccc(O[C@H]3CCN(C(=O)Cc4ccc(OC(F)(F)F)cc4)C[C@@H]3F)c(C(N)=O)c2)c1"
  MEASURED_ENDPOINT: "Kp uu"
  READING: 0.0018
- TEST_SMILES: "O=c1[nH]c(=S)n(CCO)c2cc[nH]c12"
  MEASURED_ENDPOINT: "Kp uu"
  READING: 0.048

---

- PROCEDURE_DETAILS: Drug concentration in total brain in Wistar Han rat at 1 to 2 mg/kg, iv infused for 10 to 20 hrs by LC-MS/MS analysis
- CONDITION_INFO: in vivo

- MOLECULE: "Cc1ccc(CC(C)(C)NC[C@@H](O)CO[C@H](C)c2ccccc2-c2ccc(C(=O)O)c(C)c2)cc1F"
  Ct (ng/mL): 0.38
- MOLECULE: "COc1cc2nc(N3CCN(C(=O)c4ccco4)CC3)nc(N)c2cc1OC"
  Ct (ng/mL): 11
- MOLECULE: "Nc1noc2ccc(-c3cc(Cl)ccc3Oc3cc(F)c(S(=O)(=O)Nc4cscn4)cc3F)cc12"
  Ct (ng/mL): 0.38
- MOLECULE: "CC(C)C[C@H](Nc1ccc(C(=O)NCCC(=O)O)cn1)c1ccc(-c2ccc(C(F)(F)F)cn2)cc1"
  Ct (ng/mL): 0.95
- MOLECULE: "CCC[C@H](Oc1cc(C)c(-n2cc(C(F)(F)F)cn2)c(C)c1)c1ccc(C(=O)NCCC(=O)O)cc1"
  Ct (ng/mL): 5.8
- MOLECULE: "COCCCN1C[C@H](C)N(C(=O)N2Cc3c(NC(=O)c4ccccn4)n[nH]c3C2(C)C)C[C@H]1C"
  Ct (ng/mL): 3.4
- MOLECULE: "C[C@H](CN1CCOCC1)n1/c(=N\\C(N)=O)[nH]c2cc(/C=C3\\c4ccccc4COc4cc(F)ccc43)ccc21"
  Ct (ng/mL): 31
- MOLECULE: "O=C(NC1CCCC1)C1CCN(c2nc3cc(Cl)ccc3o2)CC1"
  Ct (ng/mL): 88
- MOLECULE: "CCCC(Oc1ccc(-n2cc3ccccc3n2)cc1)c1ccc(C(=O)NCCC(=O)O)cc1 (configuration not stated)"
  Ct (ng/mL): 1.9
- MOLECULE: "Cc1ccc(NC(=O)c2cc(Oc3ccc(S(C)(=O)=O)cc3)c3c(c2)OC(C)(C)C3)nc1"
  Ct (ng/mL): 69
- MOLECULE: "CN(C)C(=O)c1cc(CC(=O)O)ccc1NC(=O)c1ccccc1-c1ccc(C(F)(F)F)cc1"
  Ct (ng/mL): 0.42
- MOLECULE: "COc1ccc(-c2cc3c(S(=O)(=O)O)c[nH]c3cc2Cl)cc1"
  Ct (ng/mL): 4.2
- MOLECULE: "COc1ccc(-c2cc3c(C(=O)O)n[nH]c3cc2Cl)cc1"
  Ct (ng/mL): 0.6
- MOLECULE: "C[C@H]1COCCN1c1nc(-c2cnc(N)nc2)c2c(n1)N([C@@]1(C)CCN(C(=O)C(C)(C)N)C1)CC2"
  Ct (ng/mL): 2
- MOLECULE: "O=C(O)[C@@H]1CCCN(C(=O)n2cnc(-c3ccc(-c4cnc(N5CCOCC5)nc4)cc3)n2)[C@H]1c1ccccc1"
  Ct (ng/mL): 1.5
- MOLECULE: "Oc1noc2cc(Cl)c(Cl)cc12"
  Ct (ng/mL): 24
- MOLECULE: "COc1ccc(Cc2cc([C@@H]3OC4(COC4)[C@@H](O)[C@H](O)[C@H]3O)ccc2C)cc1"
  Ct (ng/mL): 15
- MOLECULE: "CN(C)C[C@@H](OC(=O)N1Cc2c(NC(=O)C3(C(F)(F)F)CC3)n[nH]c2C1(C)C)c1ccccc1"
  Ct (ng/mL): 2.3
- MOLECULE: "O=c1[nH]c(=S)n(CCO)c2cc[nH]c12"
  Ct (ng/mL): 3.7
- MOLECULE: "CCCn1cnc(C[C@H](CCCN)C(=O)O)c1"
  Ct (ng/mL): 87
- MOLECULE: "O=C(O)c1nc2cc(Cl)c(Cl)cc2nc1O"
  Ct (ng/mL): 0.38
- MOLECULE: "O=C(c1cccc(N2CCNCC2)n1)N1CCC(c2ccccc2F)CC1"
  Ct (ng/mL): 14
- MOLECULE: "Cn1nc(C(=O)NCCN2CCOCC2)cc1-c1cc2ccccc2[nH]1"
  Ct (ng/mL): 19
- MOLECULE: "Cn1ncc(-c2ccc(C(=O)N(c3ncccc3Cl)[C@@H]3CCCNC3)cc2)c1C(=O)O"
  Ct (ng/mL): 6.8
- MOLECULE: "C[C@H](c1nc2cnc(N3CCC[C@@H](C(=O)N4CCCC4)C3)nc2[nH]1)n1cc(Cl)cn1"
  Ct (ng/mL): 1.8
- MOLECULE: "Cn1cnc(-c2ccc(O[C@H]3CCN(C(=O)Cc4ccc(OC(F)(F)F)cc4)C[C@@H]3F)c(C(N)=O)c2)c1"
  Ct (ng/mL): 0.38
- MOLECULE: "O=C(O)c1c[nH]c2cc(Cl)c(-c3ccc(CC(=O)N4CCOCC4)cc3)cc12"
  Ct (ng/mL): 0.38
- MOLECULE: "COc1cc2c(OC[C@H]3NC(=O)[C@@H]4C[C@]34C)nccc2cc1C(N)=O"
  Ct (ng/mL): 3.7
- MOLECULE: "CC(C)(O)CS(=O)(=O)c1ccc2c(c1)nc(C(C)(C)C)n2CC1CCOCC1"
  Ct (ng/mL): 6.2
- MOLECULE: "N#Cc1ccc(N2N=C(N3CCC(C(=O)N4CCC(O)CC4)CC3)C[C@H]2C2CCCC2)cc1Cl"
  Ct (ng/mL): 16
- MOLECULE: "COc1cc2c(cc1Cc1ccccc1)C[C@H](N)C(=O)N2OC(=O)N(C)C"
  Ct (ng/mL): 16
- MOLECULE: "O=C(NC1CC1)c1nc2cccnn2c1-c1ccc2ncnn2c1"
  Ct (ng/mL): 68
- MOLECULE: "CN1CC[C@H](c2c(O)cc(O)c3c(=O)cc(-c4ccccc4Cl)oc23)[C@H](O)C1"
  Ct (ng/mL): 2.9
- MOLECULE: "O=C(O)C(=O)Nc1ccc(NC(=O)[C@H](CC2CCCC2)n2cnc(C(F)(F)F)c2)nc1"
  Ct (ng/mL): 0.38
- MOLECULE: "O=C(O)[C@@H]1CCN(C(=O)n2cnc(-c3ccc(-c4cnc(N5CCOCC5)nc4)cc3)n2)[C@@H](c2ccccc2)C1"
  Ct (ng/mL): 0.38
- MOLECULE: "CC1(OC(=O)N2CCC(n3ncc(COc4ccc(C(N)=O)cc4F)c3C#N)CC2)CC1"
  Ct (ng/mL): 40
- MOLECULE: "CC1(C)CN(CCC#N)C(=O)[C@@H]1Oc1ccc(C#N)c(C(F)(F)F)c1"
  Ct (ng/mL): 91
